Test: Acute toxicity in mice upon a single intraabdominal injection
Format: in vivo
Conditions: mouse, in vivo, ip
Reported LD50 values for the following compounds.
Express the result in mg/kg but write the number alone.

CCC1(O)CC(OC2CC(N(C)C)C(OC3CC(O)C(O)C(C)O3)C(C)O2)c2c(O)c3c(c(O)c2C1O)C(=O)c1cccc(O)c1C3=O (centres unmarked) ... 25.5

Now consider a different compound.
Tell me the measured LD50 of CCC1(O)CC(OC2CC(N(C)C)C(OC3CC(O)C(OC4CCC(O)C(C)O4)C(C)O3)C(C)O2)c2c(O)c3c(c(O)c2C1O)C(=O)c1cccc(O)c1C3=O (centres unmarked) , please.
40.6
